Target: mA2a (Mus musculus (Mouse), UniProt Q60613)
Sequence (Q60613 whole entry): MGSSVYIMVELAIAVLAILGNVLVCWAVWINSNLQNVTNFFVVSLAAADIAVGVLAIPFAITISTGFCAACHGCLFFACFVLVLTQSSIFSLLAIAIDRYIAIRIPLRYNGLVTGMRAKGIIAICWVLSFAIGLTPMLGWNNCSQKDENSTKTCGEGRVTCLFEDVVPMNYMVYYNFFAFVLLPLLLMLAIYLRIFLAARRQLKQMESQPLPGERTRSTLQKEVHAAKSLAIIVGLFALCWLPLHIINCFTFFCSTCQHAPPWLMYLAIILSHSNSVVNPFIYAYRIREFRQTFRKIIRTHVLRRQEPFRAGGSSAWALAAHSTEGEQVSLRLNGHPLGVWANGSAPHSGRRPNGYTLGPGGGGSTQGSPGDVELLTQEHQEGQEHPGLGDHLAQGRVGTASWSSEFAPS
Experiment: cAMP inhibition assay in mA2a/CHO cells
Format: cell-based
Details: adenosine stimulation, read-out: cAMP & FLIPR IC50 (nM) mA2a
property name: IC50

Worked examples follow.
| molecule | IC50 |
| --- | --- |
| Cc1cc(-c2c(-c3ccc(F)cc3)nc(N)n3nc(Cc4cccc(Cl)n4)nc23)ccn1 | 88 nM |
| CN1CCC[C@@H]1Cc1nc2c(-c3ccc4ncn(C)c4c3)c(-c3ccc(F)cc3)nc(N)n2n1 | 5.7 nM |
| CN1CCC[C@H]1Cc1nc2c(-c3ccc4ncn(C)c4c3)c(-c3ccc(F)cc3)nc(N)n2n1 | 30.3 nM |
| COCCc1nc2c(-c3ccc4ncc(C)n4c3)c(-c3ccc(F)cc3)nc(N)n2n1 | 0.4 nM |
| Nc1nc(-c2ccc(F)cc2)c(-c2ccc3nccnc3c2)c2nc(Cc3ncccc3F)nn12 | 123 nM |

Next up:
Query block: Field request: IC50 | item: `Cc1cc(-c2c(-c3ccc(F)cc3)nc(N)n3nc(Cc4cccc(Cl)c4)nc23)ccn1`
Result block: 98 nM

* * *

Target: hA1 (Homo sapiens (Human))
Sequence (P30542 whole entry): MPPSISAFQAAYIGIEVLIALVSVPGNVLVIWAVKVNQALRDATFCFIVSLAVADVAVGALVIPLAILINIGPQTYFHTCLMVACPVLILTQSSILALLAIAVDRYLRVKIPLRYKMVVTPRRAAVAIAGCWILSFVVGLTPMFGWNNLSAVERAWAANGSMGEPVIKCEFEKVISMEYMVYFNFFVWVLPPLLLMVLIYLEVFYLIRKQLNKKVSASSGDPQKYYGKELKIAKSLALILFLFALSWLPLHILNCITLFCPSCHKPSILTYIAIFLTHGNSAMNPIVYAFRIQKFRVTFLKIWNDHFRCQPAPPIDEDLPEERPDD
Experiment: FLIPR inhibition assay in hADORA1/CHO (hA1 expressing) cells
Type: cell-based
Conditions: hADORA1/CHO cells, FLIPR calcium, adenosine stimulation; read-out: cAMP & FLIPR IC50 (nM) hA1
Protocol: hADORA1/CHO (hA1 expressing) cells (Genscript) were plated at 1×10^4 cells/well into 384-well polystyrene plates one day before starting the experiment. On the day of experiment, the supernatant was discard and replaced with 40 µL of dye (FLIPR calcium 5 Assay Kit) per well and the plates were incubated for 60 mins at 37° C. plus 5% CO2. Then testing compounds were added at different concentrations for FLIPR™ inhibition assay. […]
// reported IC50 per item
Lab book: enter the figure in nM, no units written.

| test smiles | IC50 (nM) |
| --- | --- |
| Cn1cc(-c2c(-c3ccc(F)cc3)nc(N)n3nc(Cc4cscn4)nc23)ccc1=O | 25 |
| Cc1cnc2ccc(-c3c(N(C)C)nc(N)n4nc(Cc5ncccc5F)nc34)cn12 | 11.8 |
| Cc1cnc(-c2nc(N)n3nc(Cc4c(F)cccc4F)nc3c2-c2ccc(=O)n(C)c2)o1 | 33 |

Next up:
Query block: Query IC50 on hA1 (Homo sapiens (Human)) for `Nc1nc(-c2ncco2)c(-c2ccc3nccn3c2)c2nc(Cc3ncccc3F)nn12`
Result block: 188

* * *

Molecular target: hA2b (Homo sapiens (Human))
Sequence (P29275 whole entry): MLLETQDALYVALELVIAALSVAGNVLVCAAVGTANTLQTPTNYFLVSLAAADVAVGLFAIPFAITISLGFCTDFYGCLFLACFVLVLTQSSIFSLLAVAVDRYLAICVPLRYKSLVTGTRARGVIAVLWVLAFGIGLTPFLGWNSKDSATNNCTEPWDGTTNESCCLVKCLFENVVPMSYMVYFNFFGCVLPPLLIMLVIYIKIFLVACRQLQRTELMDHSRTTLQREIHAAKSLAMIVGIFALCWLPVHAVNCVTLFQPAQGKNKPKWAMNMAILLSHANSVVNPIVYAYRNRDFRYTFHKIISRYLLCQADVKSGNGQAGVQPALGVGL
Test: Radioligand binding to hA2b membrane ([3H]-DPCPX)
Details: 60 min at 27° C., read-out: Binding Affinity (IC50 nM) hA2b
property name: log10 of IC50 (log10 of the value in nM)
Could you please treat all values as log10 of IC50 in nM?

Query block: Field request: log10 of IC50 | item: Cn1cc(-c2c(-c3ccc(F)cc3)nc(N)n3nc(Cc4ncccc4OC(F)F)nc23)ccc1=O [Example 20]
Result block: 0.94

Query block: Queued: CN(C)c1cc(-c2c(-c3ccc(F)cc3)nc(N)n3nc(Cc4c(F)cccc4F)nc23)ccn1 [Example 10]
Result block: -1.00

Query block: Queued: CC(C)n1cc(-c2c(-c3ccc(F)cc3)nc(N)n3nc(Cc4ncccc4F)nc23)ccc1=O [Example 55]
Result block: 0.45

Query block: Queued: Cn1cc(-c2c(-c3ccc(F)cc3)nc(N)n3nc(Cc4ncccc4F)nc23)ccc1=O [Example 1]
Result block: 0.36

Query block: Queued: CCn1cc(-c2c(-c3ccc(F)cc3)nc(N)n3nc(Cc4ncccc4F)nc23)ccc1=O [Example 34]
Result block: -0.40
